Biological target: UniProt P0DTD1
Assay type: binding
Details: ligand occupancy after refinement (phenix.refine); crystal soaking of Mac1
Outcome label depends on Refined occupancy relative to 20: at/above gives 1, below gives 0.

Use the examples below as a reference point.
# COMPOUND, QUALITATIVE_LABEL
records = [
    ("O=C(Nc1ccc(C(=O)NC2c3cccc(O)c3CC2C(=O)O)c(O)c1)NC1CC1 (stereo not shown)", 1),
    ("CN(Cc1nnc2c(=O)[nH]ccn12)c1ccc2nccnc2n1", 1),
    ("CC1(C(=O)O)CCN(C(=O)Cc2c[nH]c3nccc(Cl)c23)C1 (stereo not shown)", 1),
    ("CC(Cc1ccco1)C(=O)N[C@@H](CC(=O)O)c1ccc2c(c1)OCO2 (stereo partly shown)", 1),
    ("Cc1ccc([C@@H]2C[C@@H](C)CCN2C(=O)c2ncnc3[nH]ccc23)o1", 0),
    ("Cc1noc(-c2ccnc(-c3ccnc4[nH]ccc34)c2)n1", 0),
]

Inquiry: Dear colleague, could you confirm whether O=S1(=O)CCCC(Nc2ncnc3[nH]ccc23)C1 (stereo not shown) has Refined occupancy at or above 20?
Reply text: 1

Inquiry: Dear colleague, could you confirm whether O=C(NC1c2cccc(O)c2CC1C(=O)O)c1cnc(NC2CCOCC2)cn1 (stereo not shown) has Refined occupancy at or above 20?
Reply text: 1

* * *

Molecular target: MacroD2 (Homo sapiens)
Construct: MacroD2_HTRF; HTRF assay; pET22b(+); His6, TEV, Avi; made in house
Sequence (A1Z1Q3 with tags, fused parts or gaps): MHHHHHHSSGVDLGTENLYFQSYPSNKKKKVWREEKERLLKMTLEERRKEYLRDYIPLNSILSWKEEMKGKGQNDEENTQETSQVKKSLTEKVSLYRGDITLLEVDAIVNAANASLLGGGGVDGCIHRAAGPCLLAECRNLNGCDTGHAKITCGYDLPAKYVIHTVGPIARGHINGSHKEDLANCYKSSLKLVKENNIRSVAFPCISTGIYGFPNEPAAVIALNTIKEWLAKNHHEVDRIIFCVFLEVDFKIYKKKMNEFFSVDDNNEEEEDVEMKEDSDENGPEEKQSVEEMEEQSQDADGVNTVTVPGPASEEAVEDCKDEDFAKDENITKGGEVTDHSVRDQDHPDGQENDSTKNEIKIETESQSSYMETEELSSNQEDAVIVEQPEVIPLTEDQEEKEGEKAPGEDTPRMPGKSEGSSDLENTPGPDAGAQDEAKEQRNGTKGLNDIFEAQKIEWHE
Assay: adapted HTRF-based peptide displacement assay (off-target)
Format: binding
Conditions: compound at 1 mM
REPORTED_METRIC: displacement of the ADPr-conjugated peptide (off-target activity) (%)
# unit: % | format: bare number

# COMPOUND, EXPERIMENTAL_VALUE
measured = [
    ("O=C(O)CC1CN(c2ncnc3[nH]c4cc(F)ccc4c23)CCO1 (stereo not shown)", 50),
]

Please examine the following record next.
O=C(O)C1(F)CN(c2ncnc3[nH]c4cc(F)ccc4c23)CC12CCC2 (stereo not shown) has a reported displacement of the ADPr-conjugated peptide (off-target activity) of 50

* * *

Each entry below carries its reported DSF max dTma.
Biological target: SARS-CoV-2 NSP3 Mac1 (Severe acute respiratory syndrome coronavirus 2)
Assay type: binding
Parameters: contains a conserved macrodomain enzyme (Mac1)
Conditions: maximal thermal upshift

# example entries with known answers
# COMPOUND, ASSAY_TARGET, DSF max dTma
rows = [
    ("Cc1ccc(NS(=O)(=O)c2ccc(C(F)(F)F)cn2)c(O)n1 [ZINC000359659274]", "SARS-CoV-2 NSP3 Mac1 (Severe acute respiratory syndrome coronavirus 2)", "0.65 ˚C"),
    ("CC1C(=O)CCCN1C(=O)c1ccnc2[nH]cnc12 (stereo not drawn) [ZINC000885048835]", "SARS-CoV-2 NSP3 Mac1 (Severe acute respiratory syndrome coronavirus 2)", "0.16 ˚C"),
    ("O=C(c1ncnc2[nH]ccc12)N1CC(n2ccnn2)C1 [ZINC001335091110]", "SARS-CoV-2 NSP3 Mac1 (Severe acute respiratory syndrome coronavirus 2)", "0.04 ˚C"),
    ("O=C(OCCN1CCOC1=O)c1ncnc2[nH]ccc12 [Z8207]", "SARS-CoV-2 NSP3 Mac1 (Severe acute respiratory syndrome coronavirus 2)", "2.51 ˚C"),
    ("O=C(Nc1ccc(C(=O)NCc2c(C(=O)O)sc3ccccc23)cc1)NC1CC1 [Z8539_0025]", "SARS-CoV-2 NSP3 Mac1 (Severe acute respiratory syndrome coronavirus 2)", "0.91 ˚C"),
]

Hey, SARS-CoV-2 NSP3 Mac1 (Severe acute respiratory syndrome coronavirus 2) data for O=C(Nc1ccc(C(=O)NCc2c(C(=O)O)oc3ccccc23)cc1)NC1CC1 [Z8539_0026] : DSF max dTma came out at 3.52 ˚C

Hey, SARS-CoV-2 NSP3 Mac1 (Severe acute respiratory syndrome coronavirus 2) data for NC(=O)Nc1ccc(C(=O)NC2c3cccc(O)c3CC2C(=O)O)cc1 (stereo not drawn) [Z8539_0041] : DSF max dTma came out at 6 ˚C

Hey, SARS-CoV-2 NSP3 Mac1 (Severe acute respiratory syndrome coronavirus 2) data for CNS(=O)(=O)c1cc(C(=O)N2CCc3nc(N)ncc3C2)co1 [FRESH00014649046] : DSF max dTma came out at 0.29 ˚C

Hey, SARS-CoV-2 NSP3 Mac1 (Severe acute respiratory syndrome coronavirus 2) data for O=C(NC1c2cccc(O)c2CC1C(=O)O)c1cnc(NC2CCOCC2)cn1 (stereo not drawn) [8539_0007] : DSF max dTma came out at 3.42 ˚C

* * *

Target: SARS-CoV-2 NSP3 Mac1 (Severe acute respiratory syndrome coronavirus 2, UniProt P0DTD1)
Type: binding
Conditions: ligand modeled in the crystal structure; crystal soak, compound concentration 100 mM

# COMPOUND, ASSAY_TARGET, Modeled?
records = [
    ("Cn1ccn2c(CCNC(=O)[C@H]3C[C@H]3C(=O)O)nnc2c1=O", "SARS-CoV-2 NSP3 Mac1 (Severe acute respiratory syndrome coronavirus 2, UniProt P0DTD1)", "TRUE"),
    ("Cc1oc(CNc2ncnc3[nH]c4ccccc4c23)cc1C(=O)O", "SARS-CoV-2 NSP3 Mac1 (Severe acute respiratory syndrome coronavirus 2, UniProt P0DTD1)", "TRUE"),
    ("Cn1ncc2c(=O)[nH]c(CCC(=O)N3CC=C(C(=O)O)C3)nc21", "SARS-CoV-2 NSP3 Mac1 (Severe acute respiratory syndrome coronavirus 2, UniProt P0DTD1)", "TRUE"),
    ("CC(Cc1ccco1)C(=O)N[C@@H](CC(=O)O)c1ccc2c(c1)OCO2 (stereo partly shown)", "SARS-CoV-2 NSP3 Mac1 (Severe acute respiratory syndrome coronavirus 2, UniProt P0DTD1)", "TRUE"),
]

* * *

Each entry below carries its reported Refined occupancy.
Molecular target: SARS-CoV-2 NSP3 Mac1 (Severe acute respiratory syndrome coronavirus 2, UniProt P0DTD1)
Type: binding
Conditions: ligand occupancy after refinement (phenix.refine); crystal soaking of Mac1

# example entries with known answers
# COMPOUND, ASSAY_TARGET, REPORTED_METRIC, EXPERIMENTAL_VALUE
measured = [
    ("O=C(O)c1csc(CCNC(=O)c2cc3[nH]cnc3cc2F)n1 [Z5740]", "SARS-CoV-2 NSP3 Mac1 (Severe acute respiratory syndrome coronavirus 2, UniProt P0DTD1)", "Refined occupancy", 20),
    ("Cc1cc(S(=O)(=O)Nc2cnc3[nH]ccc3c2)n(C2CCCC2)n1 [FRESH00010608284]", "SARS-CoV-2 NSP3 Mac1 (Severe acute respiratory syndrome coronavirus 2, UniProt P0DTD1)", "Refined occupancy", 30),
    ("O=C(O)C(O)C1CCCN(c2ncnc3[nH]c4cc(F)ccc4c23)C1 (stereo not drawn) [LL114_0036]", "SARS-CoV-2 NSP3 Mac1 (Severe acute respiratory syndrome coronavirus 2, UniProt P0DTD1)", "Refined occupancy", 48),
    ("O=C(O)[C@@H]1[C@@H]2CCN(c3ncnc4[nH]c5cc(F)ccc5c34)C[C@@H]21 [LL114_0037]", "SARS-CoV-2 NSP3 Mac1 (Severe acute respiratory syndrome coronavirus 2, UniProt P0DTD1)", "Refined occupancy", 34),
    ("O=C(NC1c2cccc(O)c2CC1C(=O)O)c1ccc(NCC2CC2)nc1 (stereo not drawn) [8539_0009]", "SARS-CoV-2 NSP3 Mac1 (Severe acute respiratory syndrome coronavirus 2, UniProt P0DTD1)", "Refined occupancy", 70),
    ("Nc1nc(N)c2ncn(Cc3csc(C4CC4)n3)c2n1 [Compound Z8585]", "SARS-CoV-2 NSP3 Mac1 (Severe acute respiratory syndrome coronavirus 2, UniProt P0DTD1)", "Refined occupancy", 36),
    ("CC1(C)CCC(C(=O)O)CN1C(=O)c1ncnc2[nH]ccc12 (stereo not drawn) [FRESH00012962804]", "SARS-CoV-2 NSP3 Mac1 (Severe acute respiratory syndrome coronavirus 2, UniProt P0DTD1)", "Refined occupancy", 44),
    ("NC(=O)Nc1ccc(C(=O)NC2c3cccc(O)c3CC2C(=O)O)cc1 (stereo not drawn) [Z8539_0041]", "SARS-CoV-2 NSP3 Mac1 (Severe acute respiratory syndrome coronavirus 2, UniProt P0DTD1)", "Refined occupancy", 48),
]

Fc1ccc2c(c1)[nH]c1ncnc(N3CCOC(c4nnn[nH]4)C3)c12 (stereo not drawn) [LL114_0008] has a reported Refined occupancy of 50

O=C(NCc1c(C(=O)O)[nH]c2ccccc12)c1ccc2[nH]cnc2c1 [Z8539_2005] has a reported Refined occupancy of 38

CC(F)(F)c1cncc(C(=O)NC(Cc2cncc(Br)c2)C(=O)O)c1 (stereo not drawn) [Compound Z3140] has a reported Refined occupancy of 20

* * *

Target: SARS-CoV-2 NSP3 Mac1 (Severe acute respiratory syndrome coronavirus 2, UniProt P0DTD1)
Format: binding
Set-up: contains a conserved macrodomain enzyme (Mac1)
Conditions: DSF dose responsiveness, 1 µM nsp3 mac1; adj p given
Each entry below carries its reported Spearman est (compound concentration vs apparent Tm).
Response field accepts a number only; no unit should be typed.

# COMPOUND, ASSAY_TARGET, EXPERIMENTAL_VALUE
rows = [
    ("c1ccc2c(-c3noc(CCCc4nc(C5CC5)no4)n3)n[nH]c2c1 [ZINC000356759652]", "SARS-CoV-2 NSP3 Mac1 (Severe acute respiratory syndrome coronavirus 2, UniProt P0DTD1)", 0.72),
    ("O=C(NC1c2cccc(O)c2CC1C(=O)O)c1ccc2[nH]c(CO)nc2c1 (centres unmarked) [Z8539_0002]", "SARS-CoV-2 NSP3 Mac1 (Severe acute respiratory syndrome coronavirus 2, UniProt P0DTD1)", 0.74),
    ("Nc1cc(-c2noc(CCn3cccn3)n2)ncn1 [ZINC000820965086]", "SARS-CoV-2 NSP3 Mac1 (Severe acute respiratory syndrome coronavirus 2, UniProt P0DTD1)", 0.58),
    ("c1ccc2c(c1)N(c1ncnc3[nH]ccc13)CC21CC1 [ZINC000352369310]", "SARS-CoV-2 NSP3 Mac1 (Severe acute respiratory syndrome coronavirus 2, UniProt P0DTD1)", "−0.82"),
    ("Cc1oc(-c2cccs2)nc1Cc1nc(-c2cncnc2N)no1 [ZINC000350813789]", "SARS-CoV-2 NSP3 Mac1 (Severe acute respiratory syndrome coronavirus 2, UniProt P0DTD1)", 0.74),
]

CNc1ccc(C(=O)N2CC(C(=O)O)CC2(C)C)cn1 (centres unmarked) [REAL250001652488] has a reported Spearman est (compound concentration vs apparent Tm) of 0.12

CC(C(=O)N1CC(C(N)=O)C1)n1cnc2c(N)ncnc21 (centres unmarked) [ZINC001434309614] has a reported Spearman est (compound concentration vs apparent Tm) of 0.08

Cc1ccccc1CNc1ncnc(-c2ccccc2)n1 [ZINC001184571635] has a reported Spearman est (compound concentration vs apparent Tm) of 0.82

O=C(Cc1ccc2c(c1)CCO2)OCc1cc2ccccc2[nH]c1=O [ZINC000733430132] has a reported Spearman est (compound concentration vs apparent Tm) of −0.12

COc1ccc(-c2nnc(NC(=O)Cc3ncccc3F)s2)cc1 [ZINC000350686468] has a reported Spearman est (compound concentration vs apparent Tm) of 0.17

N#Cc1cccc(-n2ccc(C(=O)OCc3cccnc3)n2)c1 [ZINC000798346395] has a reported Spearman est (compound concentration vs apparent Tm) of 0.61

O=C1CCCN1CCSc1ncnc2[nH]cnc12 [ZINC000118179920] has a reported Spearman est (compound concentration vs apparent Tm) of 0.78

O=S1(=O)CCC2(CCCN(c3ncnc4[nH]ccc34)C2)C1 (centres unmarked) [Z4305] has a reported Spearman est (compound concentration vs apparent Tm) of 0.77

O=C(O)C1(F)CN(c2ncnc3[nH]c4cc(F)ccc4c23)CC12CCC2 (centres unmarked) [LL1_0023] has a reported Spearman est (compound concentration vs apparent Tm) of 0.98

CC1CC(C(=O)O)N1C(=O)c1cc(O)nc2ccc(F)cc12.O=C(O)C(F)(F)F (centres unmarked) [REAL300007260658] has a reported Spearman est (compound concentration vs apparent Tm) of −0.11

CC(C)NC(=O)Nc1ccc(C(=O)NC2c3cccc(O)c3CC2C(=O)O)cc1 (centres unmarked) [Z8539_0046] has a reported Spearman est (compound concentration vs apparent Tm) of 0.49

O=C(Nc1nc2ccccc2c(=O)[nH]1)c1cccnc1 [Z1082933628] has a reported Spearman est (compound concentration vs apparent Tm) of 0.37

Reference for the values: paper PMC9926234
